Test system: 1b (con1) replicon cells
Test protocol: HCV 1b replicon inhibitory activity (luciferase, Britelite Plus)
Type: cell-based, hepatitis C virus
Details: Hepatitis C virus; geometric mean, 95% confidence intervals in parentheses; 48 hours; medium with 10% FCS; read-out: IC50 value (95% Confidence Intervals) pM Replicon 1B assay
Recorded metric: IC50 (pM)

Compound	Recorded metric	Measured number
COC(=O)N[C@H](C(=O)N1CCC[C@H]1c1nc(-c2ccc3nc(-c4ccc(-c5cnc([C@@H]6CCCN6C(=O)[C@@H](NC(=O)OC)C(C)C)[nH]5)cc4)cc(C#N)c3c2)c[nH]1)C(C)C	IC50	58.4
CC[C@H](NC(=O)OC)C(=O)N1CCC[C@H]1c1nc(-c2ccc(-c3cnc4cc(-c5cnc([C@@H]6CCCN6C(=O)[C@H](CC)NC(=O)OC)[nH]5)cnc4c3)cc2)c[nH]1	IC50	358
COC(=O)N[C@H](C(=O)N1CCC[C@H]1c1nc(-c2ccc(-c3ccc4cc(-c5cnc([C@@H]6CCCN6C(=O)[C@@H](NC(=O)OC)C(C)C)[nH]5)ccc4c3)nc2)c[nH]1)C(C)C	IC50	3.51
CCOc1nc(-c2ccc(-c3cnc([C@@H]4CCCN4C(=O)[C@@H](NC(=O)OC)C(C)C)[nH]3)cc2)nc2ccc(-c3cnc([C@@H]4CCCN4C(=O)[C@@H](NC(=O)OC)C(C)C)[nH]3)cc12	IC50	5.28
COC(=O)N[C@H](C(=O)N1CCC[C@H]1c1nc(-c2cnc(-c3cnc4cc(-c5cnc([C@@H]6CCCN6C(=O)[C@@H](NC(=O)OC)C(C)C)[nH]5)ccc4n3)nc2)c[nH]1)C(C)C	IC50	222
COC(=O)N[C@H](C(=O)N1CCC[C@H]1c1nc(-c2cnc(-c3cc4ccc(-c5cnc([C@@H]6CCCN6C(=O)[C@@H](NC(=O)OC)C(C)C)[nH]5)cc4cn3)nc2)c[nH]1)C(C)C	IC50	152
COC(=O)N[C@H](C(=O)N1CCC[C@H]1c1ncc(-c2ccc(-c3ccc4cc(-c5cnc([C@@H]6CCCN6C(=O)[C@@H](NC(=O)OC)C(C)C)[nH]5)ccc4c3)cc2)[nH]1)C(C)C	IC50	2.37
CC[C@H](NC(=O)OC)C(=O)N1CCC[C@H]1c1ncc(-c2ccc(-c3ccc4cc(-c5cnc([C@@H]6CCCN6C(=O)[C@H](CC)NC(=O)OC)[nH]5)ccc4c3)cc2)[nH]1	IC50	10.8
COC(=O)N[C@H](C(=O)N1CCC[C@H]1c1ncc(-c2ccc(-c3ccc4nc(-c5cnc([C@@H]6CCCN6C(=O)[C@@H](NC(=O)OC)C(C)C)[nH]5)cnc4c3)cc2)[nH]1)C(C)C	IC50	8.12
CC[C@H](NC(=O)OC)C(=O)N1CCC[C@H]1c1ncc(-c2ccc3cc(-c4ccc(-c5cnc([C@@H]6CCCN6C(=O)[C@@H](NC(=O)OC)C(C)C)[nH]5)cc4)ccc3c2)[nH]1	IC50	1.92
COC(=O)N[C@H](C(=O)N1CCC[C@H]1c1nc(-c2ccc(-c3cnc4cc(-c5cnc([C@@H]6CCCN6C(=O)[C@@H](NC(=O)OC)[C@@H](C)OC(C)(C)C)[nH]5)ccc4n3)cc2)c[nH]1)C(C)C	IC50	14.2
COC(=O)N[C@H](C(=O)N1CCC[C@H]1c1nc(-c2ccc(-c3nc4ccc(-c5c[nH]c([C@@H]6CCCN6C(=O)[C@@H](NC(=O)OC)C(C)C)n5)cc4nc3OC)cc2)c[nH]1)C(C)C	IC50	22.3
COC(=O)N[C@H](C(=O)N1CCC[C@H]1c1ncc(-c2ccc(-c3cnc4cc(-c5cnc([C@@H]6CCCN6C(=O)[C@@H](NC(=O)OC)C(C)C)[nH]5)ccc4n3)cc2)[nH]1)C(C)C	IC50	7.7
COC(=O)N[C@H](C(=O)N1CCC[C@H]1c1nc(-c2ccc(-c3cc4ccc(-c5cnc([C@@H]6CCCN6C(=O)[C@@H](NC(=O)OC)C(C)C)[nH]5)cc4cn3)nc2)c[nH]1)C(C)C	IC50	20.8
COC(=O)N[C@H](C(=O)N1CCC[C@H]1c1ncc(-c2ccc(-c3nc(O)c4cc(-c5cnc([C@@H]6CCCN6C(=O)[C@@H](NC(=O)OC)C(C)C)[nH]5)ccc4n3)cc2)[nH]1)C(C)C	IC50	102
COC(=O)N[C@H](C(=O)N1CCC[C@H]1c1ncc(-c2cnc(-c3ccc4cc(-c5cnc([C@@H]6CCCN6C(=O)[C@@H](NC(=O)OC)C(C)C)[nH]5)ccc4c3)nc2)[nH]1)C(C)C	IC50	21.4
COC(=O)NC(C(=O)N1CCC[C@H]1c1ncc(-c2ccc3nc(-c4ccc(-c5c[nH]c([C@@H]6CCCN6C(=O)[C@@H](NC(=O)OC)C(C)C)n5)cc4)cnc3c2)[nH]1)C1CCOCC1 (stereo partly drawn)	IC50	23.7
COC(=O)N[C@H](C(=O)N1CCC[C@H]1c1nc(-c2ccc3nc(-c4ccc(-c5cnc([C@@H]6CCCN6C(=O)[C@@H](NC(=O)OC)C(C)C)[nH]5)cc4)ccc3c2)c[nH]1)C(C)C	IC50	9.31
